Provenance of the data: ChEMBL document CHEMBL4000255

EXPERIMENT: Apparent plasma clearance in cynomolgus monkey at 2 mg/kg, iv administered as single bolus dose by LC-MS/MS analysis
Type: ADME, organism-based, Macaca fascicularis
STUDY CONDITIONS: read-out: CL(app)
PARAMETER: clearance (mL/min/kg)

>>> test_result("O=C(O)CSc1nnc(Br)n1-c1ccc(C2CC2)c2ccccc12")
3.3
